From: patent US12331264B2

Assay: Accelerated oxidation of ICLs with H2O2/Fe(III)Cl, UHPLC-CAD
Type: physicochemical
Settings: Table 14; ICL lipid suspensions, 1% H2O2/100 μM Fe(III)Cl, 37° C., 72 h
Method: Individual lipid stocks (10 mM) were prepared in ethanol and stored at −20° C. […] Finally, liposomes were sterile filtered through 0.2 μm PES (Nalgene) syringe filters and size measured by a ZetaSizer (Malvern). […] The data are presented as a percentage of the main lipid peak measured at different time points relative to the lipid peak measured at time zero.
Label Criterion met for high-side % of parent lipid peak at time 0, 72 h (at or above 0.3%) and Criterion not met for low-side % of parent lipid peak at time 0, 72 h (below it).

Look over these answered cases.
{"COMPOUND": "CCCCC/C=C\\CCCC/C=C\\CCCCCC1(CCCCC/C=C\\CCCC/C=C\\CCCCC)OC[C@H](CCCN(C)C)O1", "DISCRETE LABEL": "Criterion met"}
{"COMPOUND": "CCCCC/C=C\\CCCC/C=C\\CCCCCC1(CCCCC/C=C\\CCCC/C=C\\CCCCC)OC[C@H](CCN(C)C)O1", "DISCRETE LABEL": "Criterion met"}
{"COMPOUND": "CCCCC/C=C\\C/C=C\\CCCCCCCCC1(CCCCCCCC/C=C\\C/C=C\\CCCCC)OCC(CCCN(C)C)O1 (stereo not drawn)", "DISCRETE LABEL": "Criterion not met"}

Hi team, for CCCCC/C=C\C/C=C\CCCCCCCCC1(CCCCCCCC/C=C\C/C=C\CCCCC)OCC(CCN(C)C)O1 (stereo not drawn) , is the recorded % of parent lipid peak at time 0, 72 h at or above 0.3%?
Criterion not met

# check: % of parent lipid peak at time 0, 72 h of `CCCCC/C=C\CCCC/C=C\CCCCC(=O)OC[C@H](CCN(C)C)OC(=O)CCCC/C=C\CCCC/C=C\CCCCC` is greater than or equal to 0.3%
Criterion met

----------
Experiment: Accelerated oxidation of ICLs with H2O2/Fe(III)Cl, UHPLC-CAD
Assay type: physicochemical
Settings: Table 14; ICL lipid suspensions, 1% H2O2/100 μM Fe(III)Cl, 37° C., 48 h
Decide using % of parent lipid peak at time 0, 48 h alone. Strictly below 70%: Fulfilled. Equal to or above 70%: Not fulfilled.

{"MOLECULE": "CCCCC/C=C\\C/C=C\\CCCCCCCC(=O)OC[C@H](CCN(C)C)OC(=O)CCCCCCC/C=C\\C/C=C\\CCCCC [Compound O-11769]", "DISCRETE LABEL": "Fulfilled"}
{"MOLECULE": "CCCCC/C=C\\C/C=C\\CCCCCCCCC1(CCCCCCCC/C=C\\C/C=C\\CCCCC)OCC(CCN(C)C)O1 (stereo not drawn) [KC2, DLin-KC2-DMA]", "DISCRETE LABEL": "Fulfilled"}
{"MOLECULE": "CCCCC/C=C\\CCCC/C=C\\CCCCC(=O)OC[C@H](CCN(C)C)OC(=O)CCCC/C=C\\CCCC/C=C\\CCCCC [UO-1]", "DISCRETE LABEL": "Not fulfilled"}
{"MOLECULE": "CCCCC/C=C\\CCCC/C=C\\CCCCCC1(CCCCC/C=C\\CCCC/C=C\\CCCCC)OC[C@H](CCN(C)C)O1 [KC2-01]", "DISCRETE LABEL": "Not fulfilled"}
{"MOLECULE": "CCCCC/C=C\\C/C=C\\CCCCCCCCC1(CCCCCCCC/C=C\\C/C=C\\CCCCC)OCC(CCCN(C)C)O1 (stereo not drawn) [KC3, Dlin-KC3-DMA]", "DISCRETE LABEL": "Fulfilled"}

Attention now turns to another entry.
Is the reported % of parent lipid peak at time 0, 48 h for CCCCC/C=C\CCCC/C=C\CCCCCC1(CCCCC/C=C\CCCC/C=C\CCCCC)OC[C@H](CCCN(C)C)O1 [KC3-01] strictly below 70%?
Not fulfilled
